# ASSAY_SYSTEM: Voltage-gated potassium channel subunit beta-2 (Rattus norvegicus) (UniProt P62483)
# Sequence (P62483 whole entry, looked up): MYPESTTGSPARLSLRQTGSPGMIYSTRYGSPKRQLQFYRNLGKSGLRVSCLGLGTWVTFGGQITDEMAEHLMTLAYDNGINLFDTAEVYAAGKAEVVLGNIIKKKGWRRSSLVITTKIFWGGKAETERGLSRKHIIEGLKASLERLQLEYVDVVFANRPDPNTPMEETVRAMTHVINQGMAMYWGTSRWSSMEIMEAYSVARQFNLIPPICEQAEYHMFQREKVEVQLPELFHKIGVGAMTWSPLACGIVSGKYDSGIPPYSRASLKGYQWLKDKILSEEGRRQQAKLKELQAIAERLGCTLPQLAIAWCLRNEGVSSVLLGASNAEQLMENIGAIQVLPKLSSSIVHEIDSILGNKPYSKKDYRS
# PROTOCOL_SUMMARY: KvBeta positive modulators, primary screen, biochemical, NADPH fluorescence (AID 623);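 note: fluorescence intensity change per second fitted from 20 to 320 s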
# PROTOCOL_CONDITIONS: Recombinant KvBeta, NADPH fluorescence decrease slope, 10 min; at 10 µM; active compounds read low
REPORTED_ENDPOINT: NADPH fluorescence slope

Cc1ccc(-c2n[nH]c(=O)c3ccccc23)cc1S(=O)(=O)NCCN1CCOCC1 | -4.4e-05
COc1ccc(CCn2c(C)cc3c(c2=O)C(c2ccc4c(c2)OCO4)C(C#N)=C(N)O3)cc1OC (configuration not stated) | -4.4e-05
c1ccc(-c2nn3c(Cn4nnc5ccccc54)nnc3s2)nc1 | -2.3e-05
CCn1cc(C(C)NC(=O)COc2ccc(Cl)cc2C)c(C)n1 (configuration not stated) | -2.9e-05
CCCCCOc1ccc(C2NC(=O)NC2=O)cc1 (configuration not stated) | -4.1e-05
Cc1ccc(Cn2c(SCCN3CCCCC3)nc3c2c(=O)[nH]c(=O)n3C)cc1 | -2.5e-05
CCCn1c(O)c(CN2CCCC(C)C2)c(C)c(C#N)c1=O (configuration not stated) | -2.9e-05
Cc1c(C(=O)Nc2ccncc2)oc2c1C(=O)CC(C)(C)C2 | -2.8e-05
COc1cccc(NC(=O)c2cc(C(=O)Nc3cccc(OC)c3)n(C)n2)c1 | -3.5e-05
CC(C)CCNc1nc2c(cc1C#N)COC(C)(C)C2 | -5.9e-05
CCOC(=O)C1CCN(c2nc3ccccc3nc2C(C#N)C(=O)OC(C)COC)CC1 (configuration not stated) | -8.1e-05
CC(C(=O)NC(=O)NCc1ccccc1)N1C(=O)c2ccccc2C1=O (configuration not stated) | -4.3e-05
CN(C#N)c1nc(N2CCOCC2)nc(N2CCOCC2)n1 | 6.7e-06
CC1(C)Cc2c(c(-c3ccco3)[nH]c(=O)c2C#N)CS1 | -9.3e-05
COc1cccc(CNC(=O)Cn2c(=O)oc3ccccc32)c1OC | -3.1e-05
O=C(CCN1C(=O)C2C3C=CC(C3)C2C1=O)N1CCN(c2ccccc2Cl)CC1 (configuration not stated) | -4.7e-05
O=C(CCn1c(=O)sc2ccccc21)Nc1nccs1 | 3e-05
COc1ccc(NC(=O)CN2CCN(S(=O)(=O)c3ccc(Cl)cc3)CC2)cc1 | -2.8e-05
O=C(NC(=O)c1cccc(F)c1)OC[C@@H]1CCCN2CCCC[C@H]12 | 1.1e-05
CC(C)CC1NC2(C(=O)N(C)c3ccccc32)C2C(=O)N(C(C)C)C(=O)C12 (configuration not stated) | 9.4e-06
CCOC(=O)c1[nH]c2ccc(C)cc2c1N=CN(CC)CC | -7.5e-05
CCCNS(=O)(=O)c1ccc(OCC(=O)NCc2ccco2)cc1 | 8.5e-05
CCOC(=O)N1CCN(Cc2nc3c(c(=O)n(C)c(=O)n3C)n2Cc2ccccc2)CC1 | -3.9e-05
Cc1cc(C)n2nc(SCc3cc(=O)n4ccccc4n3)nc2n1 | -4.7e-06
Cn1c(=O)[nH]c(=O)c2c1nc(N1CCN(c3cccc(Cl)c3)CC1)n2CCCc1ccccc1 | -6.2e-05
COc1ccc(CCNC(=O)C2CC(=O)N(c3ccccc3)C2)cc1OC (configuration not stated) | 8.4e-07
CC(=O)C1=C(O)C(=O)N(c2ccc(Br)cn2)C1c1ccccc1F (configuration not stated) | -3.5e-05
C=CCn1c(-c2ccc(OC)c(OC)c2)n[nH]c1=S | -3.6e-05
COC(=O)CSc1nnc(C)c(=O)[nH]1 | -7.4e-05
Cc1nn(CCO)c2c1C(=O)CCC2 | -2.1e-05
Cc1oc2c(CN3CCOCC3)c(O)ccc2c(=O)c1-c1ccc(Br)cc1 | 3.7e-06
CC1(C(=O)CSc2ncn[nH]2)CCC(=O)O1 (configuration not stated) | -5.7e-05
CC(C)OC(=O)c1cc(=O)[nH]c2ccccc12 | 3e-05
COc1cc(S(=O)(=O)N(C)C)ccc1F | -5e-05
Cc1noc(C)c1S(=O)(=O)N1CCCC(C(=O)NCCc2ccc(Cl)cc2)C1 (configuration not stated) | -0.000191
CCOC(=O)c1c(C)n(OCc2ccccc2)c2ccc3c(no[n+]3[O-])c12 | -1e-05
Cc1cc(C)c(OCC(=O)Nc2ccc3c(c2)OCO3)cc1C | 4.6e-05
CCOC(=O)c1ccccc1NC(=O)CSc1nccn1C | -0.000118
CNC(=O)CSc1nnc(-c2ccc(S(=O)(=O)N3CCCC3)cc2)n1-c1cccc(C)c1C | -4.2e-05
CCOC(=O)CSc1nnc(Cn2c(=O)sc3ccccc32)n1C | -4.8e-05
Cc1cccc(-n2c(O)c(C=Nc3ccccc3N)c(=O)[nH]c2=O)c1 | -0.000142
CCOC(=O)C1=C(N)OC2=C(C(=O)CC(C)(C)C2)C1c1ccco1 (configuration not stated) | 5.5e-05

The measurements presented in this section are drawn from PubChem BioAssay.
